B1: ZNF263 (parent)
chain: VPGTQVGQGGKLWDPSVQSCKEGL

Variants of: B1
assay.overview: protein stability index of a GFP-peptide fusion (GPS, HEK-293T) (PSI 1-6); higher = more stable;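 note: lentivirally expressed fusions sorted by FACS into six bins by GFP to DsRed ratio, PSI derived from sequencing read proportions per bin multiplied by bin number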
study.conditions: c terminus: a fixed tail appended
Hi there, I'd appreciate the recorded protein stability index for every entry that follows.
Reply with the value as a number alone.

For "L24P" the variant record lists protein stability index as 4.79

Lab note: "G10P" gave protein stability index of 4.47

Entry "T4Y" ; protein stability index = 4.08

Looking up "G7P" , I see its protein stability index listed as 3.78

protein stability index reported for this variant "V1A" : 4.56

Sample "V1D" ; protein stability index observed: 4.85

In plain terms, "S16C" has a documented protein stability index of 4.11

Record summary for "L12W" : reported protein stability index = 4.01

// recorded protein stability index for "V6S" : 4.67

The variant listed as "V6Q" shows protein stability index equal to 4.73

What the record says about "S16P" : protein stability index is 4.45

Query "C20H" yields protein stability index of 3.6

The variant identified as "K11N" registered its protein stability index at 4.54

# variant "V17I" ; its protein stability index = 3.89

For this variant ( "L24E" ), measured protein stability index is 5.18

Reported protein stability index for "G9Y" was 3.59

Measured protein stability index, "D14A" : 4.14

Consider "S16G" . Its measured protein stability index is 4.21

Input "L24T" . Output protein stability index: 4.26

The variant "T4M" showed protein stability index equal to 3.92

For this variant ( "G7W" ), measured protein stability index is 4.06

The recorded protein stability index for entry "G7M" equals 3.91

Looking up "G9D" , I see its protein stability index listed as 4.55

Quick note, protein stability index for "G23E" landed at 4.4

So for "G7K" , the logged protein stability index turned out to be 3.81

// sample "D14R" , its protein stability index was 3.05

Looking up "Q18I" , I see its protein stability index listed as 4.01

The value of protein stability index measured for the variant "Q8T" turned out to be 3.56

Looking up "K21E" , I found its protein stability index recorded as 4.78

Reported protein stability index for "G23W" was 3.12

The variant listed as "Q18P" shows protein stability index equal to 4.38

response.value for "Q18G" (field: protein stability index) = 4.92

"V6E" has a reported protein stability index of 4.29

The recorded protein stability index for entry "T4H" equals 4.1

Recorded protein stability index (variant "K11Y" ): 4.12

Summary for this variant, "T4R" : protein stability index is 3.92

According to the records, this variant "S16Q" displays protein stability index of 4.38

Given item "G3M" , the value recorded as its protein stability index is 3.8

response.value for "P15G" (field: protein stability index) = 4.35

Sure, the documented protein stability index for "V17R" is 4.23

Value of protein stability index reported for the variant "P15C" is 3.75

The variant "S16A" showed protein stability index equal to 4.88

protein stability index for "G10D" is 4.54
